Assay: Biodistribution: organ distribution of F-18 signal in mice
Type: in vivo, male NMRI mice
Details: tail, 240 min post i.v. injection
// 0.0 strictly below 0.7 % ID/g in Organ distribution of F-18 signal, tail; 1.0 otherwise

Previously resolved entries follow.
O=C(NCC(=O)N1CCN(c2ccc(OCc3ccccc3)cc2)CC1)c1cccc(OCC[18F])c1 = 1.0
O=C(NCC(=O)N1CCN(c2ccc(OCc3ccccc3)cc2)CC1)c1cccnc1[18F] [Example 12c] = 1.0

Is Organ distribution of F-18 signal, tail for O=C(NCC(=O)N1CCN(c2ccc(OCc3ccccc3)cc2)CC1)c1ccnc([18F])c1 [Example 11c] at or above 0.7 % ID/g?
0.0

Is Organ distribution of F-18 signal, tail for O=C(NCC(=O)N1CCN(c2ccc(OCc3ccccc3)cn2)CC1)c1ccnc([18F])c1 [Example 14f] at or above 0.7 % ID/g?
0.0

###

Experiment: Biodistribution: organ distribution of F-18 signal in mice
Format: in vivo, male NMRI mice
Conditions: femur, 5 min post i.v. injection
# Organ distribution of F-18 signal, femur per entry
Output spec: scalar in % ID/g, unitless text.

Examples with their reported Organ distribution of F-18 signal, femur follow.
O=C(NCC(=O)N1CCN(c2ccc(OCc3ccccc3)cc2)CC1)c1cccnc1[18F] [Example 12c] = 1.63
O=C(NCC(=O)N1CCN(c2ccc(OCc3ccccc3)cc2)CC1)c1ccnc([18F])c1 [Example 11c] = 1.54
O=C(NCC(=O)N1CCN(c2ccc(OCc3ccccc3)cc2)CC1)c1cccc(OCC[18F])c1 [Example 3g] = 1.79
O=C(NCC(=O)N1CCN(c2ccc(OCc3ccccc3)cc2)CC1)c1ccc([18F])nc1 [Example 10e] = 1.53

Would you kindly look at the next entry?
// Organ distribution of F-18 signal, femur value for O=C(NCC(=O)N1CCN(c2ccc(OCc3ccccc3)cn2)CC1)c1ccnc([18F])c1 [Example 14f] : 1.38

###

Assay: Biodistribution: organ distribution of F-18 signal in mice
Type: in vivo, male NMRI mice
Conditions: skin, 2 min post i.v. injection
reported endpoint: Organ distribution of F-18 signal, skin (% ID/g)
Output spec: scalar in % ID/g, unitless text.

Examples with their reported Organ distribution of F-18 signal, skin follow.
O=C(NCC(=O)N1CCN(c2ccc(OCc3ccccc3)cc2)CC1)c1ccnc([18F])c1 [Example 11c] = 1.22
O=C(NCC(=O)N1CCN(c2ccc(OCc3ccccc3)cn2)CC1)c1ccnc([18F])c1 [Example 14f] = 1.12
O=C(NCC(=O)N1CCN(c2ccc(OCc3ccccc3)cc2)CC1)c1cccc(OCC[18F])c1 = 1.72

// Organ distribution of F-18 signal, skin value for O=C(NCC(=O)N1CCN(c2ccc(OCc3ccccc3)cc2)CC1)c1ccc([18F])nc1 [Example 10e] : 1.37

// Organ distribution of F-18 signal, skin value for O=C(NCC(=O)N1CCN(c2ccc(OCc3ccccc3)cc2)CC1)c1cccnc1[18F] [Example 12c] : 1.25

###

Assay: Biodistribution: organ distribution of F-18 signal in mice
Format: in vivo, male NMRI mice
Conditions: spleen, 240 min post i.v. injection
reported endpoint: Organ distribution of F-18 signal, spleen (% ID/g)
Output spec: scalar in % ID/g, unitless text.

Examples with their reported Organ distribution of F-18 signal, spleen follow.
O=C(NCC(=O)N1CCN(c2ccc(OCc3ccccc3)cc2)CC1)c1ccc([18F])nc1 [Example 10e] = 0.06
O=C(NCC(=O)N1CCN(c2ccc(OCc3ccccc3)cn2)CC1)c1ccnc([18F])c1 [Example 14f] = 0.04
O=C(NCC(=O)N1CCN(c2ccc(OCc3ccccc3)cc2)CC1)c1cccnc1[18F] [Example 12c] = 0.06

// Organ distribution of F-18 signal, spleen value for O=C(NCC(=O)N1CCN(c2ccc(OCc3ccccc3)cc2)CC1)c1cccc(OCC[18F])c1 : 0.36

// Organ distribution of F-18 signal, spleen value for O=C(NCC(=O)N1CCN(c2ccc(OCc3ccccc3)cc2)CC1)c1ccnc([18F])c1 [Example 11c] : 0.09
